Data provenance: patent US8202885B2

Test system: human Cav3.1 Cav3.2 or Cav3.3 channel
experiment.description: In vitro assay T channel (FLIPR calcium fluorescence)
Assay type: cell-based
conditions: HEK293 cells expressing human Cav3.1, Cav3.2 or Cav3.3; 10 mM Ca2+-induced fluo-4 fluorescence; determined up to 10 μM; read-out: T channel antagonistic activity IC50
// bucketize IC50: low (below 2000 nM), moderate (2000 nM to below 3000 nM), high (3000 nM or more)

Reference set, count: 5
1. CCOc1cccc2nc(CCCN(C)CC[C@]3(OC(=O)C(C)C)C[C@H]4CC[C@@H]3C=C4c3ccccc3)[nH]c12 (relative stereo) [Example 31A]; moderate
2. COc1cccc2[nH]c(CCCN(C)CCC3(OC(=O)C(C)C)CC4CCC3C=C4c3ccccc3)nc12 (stereo not shown) [Example 55A]; low
3. CC(C)C(=O)O[C@@]1(CCN(C)CCCc2cnc3ccccc3c2)C[C@H]2CC[C@@H]1C=C2c1ccccc1 (relative stereo) [Example 49A]; high
4. COC(=O)c1cccc2[nH]c(CCCN(C)CC[C@]3(OC(=O)C(C)C)C[C@H]4CC[C@@H]3C=C4c3ccccc3)nc12 (relative stereo) [Example 19A]; low
5. CN(CCCc1nc2ccccc2[nH]1)CC[C@]1(O)C[C@@H]2C=C[C@H]1CC2 (racemic); high

**Query** Which category does the recorded IC50 put COc1cccc2[nH]c(CCCN(C)CC[C@]3(OC(=O)CC(F)(F)F)C[C@H]4CCC[C@@H]3C=C4c3ccccc3)nc12 (relative stereo) [Example 36B] in?
**Result** moderate

**Query** Same for CCCC1=C(C)[C@H]2CC[C@@H]1C[C@]2(CCN(C)CCCc1nc2ccccc2[nH]1)OC(=O)C(C)C (relative stereo) [Example 16A]
**Result** moderate

**Query** Same for COc1cccc(C2=C[C@H]3CC[C@@H]2C[C@]3(CCN(C)CCCc2nc3ccccc3[nH]2)OC(=O)C(C)C)c1 (relative stereo)
**Result** moderate

**Query** Same for CC(C)C(=O)O[C@@]1(CCN(C)CCCc2nc3ccccc3[nH]2)C[C@H]2CC[C@@H]1C=C2c1cccs1 (relative stereo) [Example 21A]
**Result** moderate

**Query** Same for Cc1cccc(C)c1C1=C[C@H]2CC[C@@H]1C[C@]2(CCN(C)CCCc1nc2ccccc2[nH]1)OC(=O)C(C)C (relative stereo)
**Result** high

###

System: human Cav3.1 Cav3.2 or Cav3.3 channel
experiment.description: In vitro assay T channel (FLIPR calcium fluorescence)
Type: cell-based
conditions: HEK293 cells expressing human Cav3.1, Cav3.2 or Cav3.3; 10 mM Ca2+-induced fluo-4 fluorescence; determined up to 10 μM; read-out: T channel antagonistic activity IC50
recorded.metric: pIC50
Answers are plain numbers, as −log10 of the molar value.

Items follow; give pIC50 for each.
1. COC(=O)c1ccc2[nH]c(CCCN(C)CC[C@]3(OC(=O)C(C)C)C[C@H]4CC[C@@H]3C=C4c3ccccc3)nc2c1 (relative stereo) [Example 20A]
2. CC(C)C(=O)O[C@@]1(CCN(C)CCCc2cccnc2)C[C@H]2CC[C@@H]1C=C2c1ccccc1 (relative stereo) [Example 46A]
3. COCC(C)(COC)C(=O)N(C)CCCN(C)CC[C@]1(OC(=O)C(C)C)C[C@H]2CC[C@@H]1C=C2c1ccccc1 (relative stereo) [Example 51A]
4. CC(C)C(=O)O[C@@]1(CCN(C)CCCc2nc3cc(Cl)c(Cl)cc3[nH]2)C[C@H]2CC[C@@H]1C=C2c1ccccc1 (relative stereo) [Example 27A]
5. CC(C)C(=O)O[C@@]1(CCN(C)CCCc2nc3ccccc3[nH]2)C[C@H]2CC[C@@H]1C=C2c1ncco1 (relative stereo) [Example 25A]

**Result**
5.34
5.59
5.35
5.17
5.80

###

Test system: human Cav3.1 Cav3.2 or Cav3.3 channel
experiment.description: In vitro assay T channel (FLIPR calcium fluorescence)
Format: cell-based
conditions: HEK293 cells expressing human Cav3.1, Cav3.2 or Cav3.3; 10 mM Ca2+-induced fluo-4 fluorescence; determined up to 10 μM; read-out: T channel antagonistic activity IC50
// NB: equality with 5 µM counts as N; only IC50 strictly below is Y

Reference set, count: 5
1. CC(C)C(=O)O[C@@]1(CCN(C)CCc2nc3ccccc3[nH]2)C[C@H]2CC[C@@H]1C=C2c1ccccc1 (relative stereo) [Example 13A]; Y
2. CN(CCCc1nc2cccc(O)c2[nH]1)CC[C@]1(O)C[C@H]2CC[C@@H]1C=C2c1ccccc1 (relative stereo); Y
3. CC(C)C(=O)OC1(CCN(C)CCCc2nc3ccccc3[nH]2)CC2CCC1C=C2c1ccccc1 (stereo not drawn) [Example 11A]; Y
4. CC(C)C(=O)O[C@@]1(CCN(C)CCCc2cnc3occc3c2)C[C@H]2CC[C@@H]1C=C2c1ccccc1 (relative stereo) [Example 41A]; N
5. Cc1cccc(C)c1C1=C[C@H]2CC[C@@H]1C[C@@]2(O)CCN(C)CCCc1nc2ccccc2[nH]1 (relative stereo); N

Please examine the following record next.
**Query** # check: IC50 < 5 µM for COc1ccccc1-c1cnc(CCCN(C)CC[C@]2(OC(=O)C(C)C)C[C@H]3CC[C@@H]2C=C3c2ccccc2)[nH]1 (relative stereo) [Example 72A]
**Result** Y

###

Test system: human Cav3.1 Cav3.2 or Cav3.3 channel
experiment.description: In vitro assay T channel (FLIPR calcium fluorescence)
Assay type: cell-based
conditions: HEK293 cells expressing human Cav3.1, Cav3.2 or Cav3.3; 10 mM Ca2+-induced fluo-4 fluorescence; determined up to 10 μM; read-out: T channel antagonistic activity IC50
Give IC50 for every item shown.
Answers are plain numbers, in µM.

1. CN(CCCc1nc2ccccc2[nH]1)CC[C@]1(O)C[C@H]2CC[C@@H]1C=C2c1cccc(F)c1 (relative stereo) [Example 7]; 4.4
2. CC1=C(c2ccccc2)[C@H]2CC[C@@H]1C[C@@]2(O)CCN(C)CCCc1nc2ccccc2[nH]1 (relative stereo) [Example 17]; 1.26
3. COc1ccc(OC)c2[nH]c(CCCN(C)CC[C@]3(OC(=O)C(C)C)C[C@H]4CCC[C@@H]3C=C4c3ccccc3)nc12 (relative stereo) [Example 69A]; 0.727
4. COc1ccc(OC)c2[nH]c(CCCN(C)CC[C@]3(OC(=O)C(C)C)C[C@H]4CC[C@@H]3C=C4c3ccccc3)nc12 (relative stereo) [Example 61A]; 0.571
5. CN(CCCc1nc2ccccc2[nH]1)CC[C@]1(O)C[C@H]2CC[C@@H]1C=C2c1ccccc1 (relative stereo) [Example 1]; 2.29

Items follow; give IC50 for each.
1. COc1cccc2[nH]c(CCCN(C)CC[C@]3(OC(=O)C(C)C)C[C@H]4CC[C@@H]3C=C4c3ccccc3)nc12 (relative stereo) [Example 26A]
2. COCC(C)(COC)C(=O)NCCCN(C)CC[C@]1(OC(=O)C(C)C)C[C@H]2CC[C@@H]1C=C2c1ccccc1 (relative stereo) [Example 43A]
3. CC(C)C(=O)O[C@@]1(CCN(C)CCCc2nc3ccccc3[nH]2)C[C@H]2CC[C@@H]1C=C2c1ccc(F)cc1 (relative stereo) [Example 8A]

**Result**
2.09
2.71
1.63

###

Give IC50 for every item shown.
System: human Cav3.1 Cav3.2 or Cav3.3 channel
experiment.description: In vitro assay T channel (FLIPR calcium fluorescence)
Assay type: cell-based
conditions: HEK293 cells expressing human Cav3.1, Cav3.2 or Cav3.3; 10 mM Ca2+-induced fluo-4 fluorescence; determined up to 10 μM; read-out: T channel antagonistic activity IC50
Give bare numbers, in µM.

Example cases with answers are listed next.
1) CN(CCCc1nc2ccccc2[nH]1)CC[C@]1(O)C[C@H]2CC[C@@H]1C=C2c1ccc(F)cc1 (relative stereo); 1.79
2) Cc1ccccc1C1=C[C@H]2CC[C@@H]1C[C@@]2(O)CCN(C)CCCc1nc2ccccc2[nH]1 (relative stereo); 3.61
3) CC(C)C(=O)O[C@@]1(CCN(C)CCCc2nc3c(C(F)(F)F)cc(C(F)(F)F)cc3[nH]2)C[C@H]2CC[C@@H]1C=C2c1ccccc1 (relative stereo) [Example 62A]; 0.469
4) CCOc1cccc2nc(CCCN(C)CC[C@]3(O)C[C@H]4CC[C@@H]3C=C4c3ccccc3)[nH]c12 (relative stereo); 2.58
5) CC(C)C(=O)O[C@@]1(CCN(C)CCCc2nc3ccccc3[nH]2)C[C@H]2CC[C@@H]1C[C@@]21OCc2ccccc21 (relative stereo) [Example 79A]; 9.47
6) COc1ccc(OC)c2[nH]c(CCCN(C)CCC3(OC(=O)C(C)C)CC4CCC3C=C4c3ccccc3)nc12 (stereo not shown) [Example 67A]; 0.778
7) Cc1cccc(C2=C[C@H]3CC[C@@H]2C[C@@]3(O)CCN(C)CCCc2nc3ccccc3[nH]2)c1 (relative stereo); 8.42
8) CC(C)C(=O)O[C@@]1(CCN(C)CCCc2nc3ccccc3[nH]2)C[C@H]2CC[C@@H]1C[C@]21OCc2ccccc21 (relative stereo) [Example 80A]; 4.18

Items follow; give IC50 for each.
1. CCOc1ccc(CCCN(C)CC[C@]2(O)C[C@H]3CC[C@@H]2C=C3c2ccccc2)cc1OCC (relative stereo)
2. COc1ccc(CCCN(C)CC[C@]2(OC(=O)C(C)C)C[C@H]3CC[C@@H]2C=C3c2ccccc2)cc1OC (relative stereo) [Example 39A]
3. COc1cccc2[nH]c(CCCN(C)CC[C@]3(OC(=O)CC(F)(F)F)C[C@H]4CC[C@@H]3C=C4c3ccccc3)nc12 (relative stereo) [Example 26C]
4. COc1ccc(C)c2nc(CCCN(C)CC[C@]3(OC(=O)C(C)C)C[C@H]4CC[C@@H]3C=C4c3ccccc3)[nH]c12 (relative stereo) [Example 30A]
5. COc1cc2nc(CCCN(C)CC[C@]3(O)C[C@H]4CC[C@@H]3C=C4c3ccccc3)[nH]c2cc1OC (relative stereo)
6. CC(C)C(=O)OC1(CCN(C)CCCc2nc3ccccc3[nH]2)CC2CCC1C=C2c1ccccc1 (stereo not shown) [Example 12A]
7. COc1cccc2nc(CCN(C)CC[C@]3(OC(=O)C(C)C)C[C@H]4CC[C@@H]3C=C4c3ccccc3)[nH]c12 (relative stereo) [Example 32A]

**Result**
1: 3.33; 2: 7.49; 3: 4.64; 4: 1.25; 5: 2.53; 6: 4.23; 7: 3.39

Items follow; give IC50 for each.
1. COc1cccc(C2=C[C@H]3CC[C@@H]2C[C@@]3(O)CCN(C)CCCc2nc3ccccc3[nH]2)c1 (relative stereo)
2. COc1ccc(OC)c2[nH]c(CCCN(C)CCC3(OC(=O)C(C)C)CC4CCC3C=C4c3ccccc3)nc12 (stereo not shown) [Example 70A]

**Result**
5.98
0.793
